# TARGET_OR_TEST_SYSTEM: T1, human SIRP-α v1 (human, UniProt P78324 31-149)
# T1 construct: also called Human v1; Human V1
# T1 sequence (P78324 31-149 limits assumed): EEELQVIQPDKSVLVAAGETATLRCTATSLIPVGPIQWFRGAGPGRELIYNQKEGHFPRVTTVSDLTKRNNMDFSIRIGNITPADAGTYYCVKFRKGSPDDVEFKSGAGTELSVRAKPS
# EXPERIMENTAL_PROTOCOL: SPR, antibody on GLC chip
MEASURE_NAME: pKd
# pKd = -log10(concentration in molar units)

INSERT INTO results (binder, observed_measurement) VALUES
  ('antibody 119 (antibody, V domains shown, also called AB119; S119) VH: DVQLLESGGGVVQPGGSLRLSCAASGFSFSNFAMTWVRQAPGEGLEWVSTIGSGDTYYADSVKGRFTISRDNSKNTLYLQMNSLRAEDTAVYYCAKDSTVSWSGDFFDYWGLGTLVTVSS VL: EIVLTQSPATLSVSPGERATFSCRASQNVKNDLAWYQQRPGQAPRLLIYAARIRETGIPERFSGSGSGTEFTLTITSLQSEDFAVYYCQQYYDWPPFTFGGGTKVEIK', 9.74),
  ('antibody 119 variant, light chain Mut / heavy chain Mut_V34M (antibody, V domains shown) VH: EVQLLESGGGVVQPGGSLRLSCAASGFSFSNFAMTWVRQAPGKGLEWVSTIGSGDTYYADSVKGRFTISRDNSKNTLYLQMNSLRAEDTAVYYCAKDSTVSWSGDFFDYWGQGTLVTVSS VL: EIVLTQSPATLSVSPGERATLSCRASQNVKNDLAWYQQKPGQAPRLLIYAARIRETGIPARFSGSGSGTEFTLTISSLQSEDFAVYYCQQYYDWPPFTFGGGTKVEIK', 9.67),
  ('antibody 136 variant, light chain Mut_S22T / heavy chain Mut (antibody, V domains shown) VH: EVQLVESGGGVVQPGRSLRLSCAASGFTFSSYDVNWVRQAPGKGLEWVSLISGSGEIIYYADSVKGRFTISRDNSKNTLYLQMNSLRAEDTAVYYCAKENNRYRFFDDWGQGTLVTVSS VL: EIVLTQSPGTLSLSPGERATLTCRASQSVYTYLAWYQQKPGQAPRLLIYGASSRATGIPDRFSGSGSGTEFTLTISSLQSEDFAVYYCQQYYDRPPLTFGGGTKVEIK', 8.30);

Prompt: Supply pKd value. Item: antibody 119 variant, light chain wt / heavy chain Mut (antibody, human IgG1, V domains shown) VH: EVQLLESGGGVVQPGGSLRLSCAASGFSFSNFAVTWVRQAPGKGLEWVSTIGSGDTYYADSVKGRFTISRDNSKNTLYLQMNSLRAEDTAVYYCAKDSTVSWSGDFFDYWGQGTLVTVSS VL: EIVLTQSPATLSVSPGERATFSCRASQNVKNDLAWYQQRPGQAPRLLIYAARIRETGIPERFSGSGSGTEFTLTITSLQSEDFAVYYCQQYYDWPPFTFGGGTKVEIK
Response: 9.60

Prompt: Supply pKd value. Item: antibody 135 variant, light chain Mut / heavy chain Mut (antibody, V domains shown) VH: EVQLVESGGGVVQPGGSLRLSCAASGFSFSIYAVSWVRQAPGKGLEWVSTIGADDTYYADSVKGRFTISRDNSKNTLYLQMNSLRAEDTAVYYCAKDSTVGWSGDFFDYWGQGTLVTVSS VL: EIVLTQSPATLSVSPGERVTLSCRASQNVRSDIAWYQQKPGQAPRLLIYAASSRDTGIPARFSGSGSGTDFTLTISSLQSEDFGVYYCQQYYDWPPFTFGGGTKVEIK
Response: 9.72

Prompt: Supply pKd value. Item: antibody 136 variant, light chain Mut / heavy chain Mut (antibody, V domains shown) VH: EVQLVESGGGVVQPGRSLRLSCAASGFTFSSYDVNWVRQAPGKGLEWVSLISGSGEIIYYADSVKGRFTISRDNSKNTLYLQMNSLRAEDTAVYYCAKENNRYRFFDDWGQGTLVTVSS VL: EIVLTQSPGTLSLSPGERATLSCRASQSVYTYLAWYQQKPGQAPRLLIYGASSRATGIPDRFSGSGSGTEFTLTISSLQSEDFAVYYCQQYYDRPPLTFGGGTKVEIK
Response: 8.14

Prompt: Supply pKd value. Item: antibody 135 variant, light chain wt / heavy chain Mut (antibody, V domains shown) VH: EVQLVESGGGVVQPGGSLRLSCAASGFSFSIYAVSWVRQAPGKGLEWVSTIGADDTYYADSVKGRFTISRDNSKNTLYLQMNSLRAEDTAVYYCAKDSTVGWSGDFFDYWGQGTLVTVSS VL: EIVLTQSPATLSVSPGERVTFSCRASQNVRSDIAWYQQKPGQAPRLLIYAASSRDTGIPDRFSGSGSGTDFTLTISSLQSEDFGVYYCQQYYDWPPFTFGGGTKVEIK
Response: 9.74

Prompt: Supply pKd value. Item: antibody 136 variant, light chain Mut_I2T / heavy chain Mut (antibody, V domains shown) VH: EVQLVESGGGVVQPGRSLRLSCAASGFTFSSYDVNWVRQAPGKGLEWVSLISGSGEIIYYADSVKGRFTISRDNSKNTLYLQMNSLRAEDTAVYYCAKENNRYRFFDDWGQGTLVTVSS VL: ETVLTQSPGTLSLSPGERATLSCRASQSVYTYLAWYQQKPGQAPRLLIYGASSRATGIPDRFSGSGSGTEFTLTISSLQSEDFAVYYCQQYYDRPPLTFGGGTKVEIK
Response: 9.14

Prompt: Supply pKd value. Item: antibody 136 variant, light chain Mut_S12T / heavy chain Mut (antibody, V domains shown) VH: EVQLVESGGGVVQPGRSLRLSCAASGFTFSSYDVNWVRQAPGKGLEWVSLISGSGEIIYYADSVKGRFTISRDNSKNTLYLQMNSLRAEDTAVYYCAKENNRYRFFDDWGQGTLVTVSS VL: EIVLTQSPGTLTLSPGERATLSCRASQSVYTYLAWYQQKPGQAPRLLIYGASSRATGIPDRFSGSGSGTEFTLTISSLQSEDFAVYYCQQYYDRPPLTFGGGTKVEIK
Response: 8.31

Prompt: Supply pKd value. Item: antibody 135 variant, light chain Mut / heavy chain wt (antibody, V domains shown) VH: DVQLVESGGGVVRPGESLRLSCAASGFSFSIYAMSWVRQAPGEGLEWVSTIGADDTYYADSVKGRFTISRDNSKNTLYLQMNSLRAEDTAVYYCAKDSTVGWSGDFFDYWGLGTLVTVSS VL: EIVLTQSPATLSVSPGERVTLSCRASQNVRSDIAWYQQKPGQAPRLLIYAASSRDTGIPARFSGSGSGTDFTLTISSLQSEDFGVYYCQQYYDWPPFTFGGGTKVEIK
Response: 9.83
